Entry source: paper PMC7886051

The following proteins are shown together with reported kcat values.
- Substrate: CC(C)=CCC/C(C)=C/CC/C(C)=C/CO[P@@](=O)(O)OP(=O)(O)O
- PROTOCOL DETAILS: steady-state kinetics of purified enzyme (details in supplement)
- Format: biochemical, Streptomyces coelicolor
- TEST SETTINGS: Mg2+-dependent enzyme; assay conditions in supplement
Express your answer in s⁻¹, writing the number without its unit.

Record excerpt, results attached:
PROTEIN	kcat (s⁻¹)
Gd11olS (germacradien-11-ol synthase; N-terminal domain of geosmin synthase) (Streptomyces coelicolor A3(2)) (protein, N-terminal domain, residues 1-366 of geosmin synthase; codon-optimized synthetic gene in pET28a, expressed in E. coli, purified to homogeneity; tag details in supplement) MTQQPFQLPHFYLPHPARLNPHLDEARAHSTTWAREMGMLEGSGVWEQSDLEAHDYGLLCAYTHPDCDGPALSLITDWYVWVFFFDDHFLEKYKRSQDRLAGKAHLDRLPLFMPLDDAAGMPEPRNPVEAGLADLWTRTVPAMSADWRRRFAVATEHLLNESMWELSNINEGRVANPVEYIEMRRKVGGAPWSAGLVEYATAEVPAAVAGTRPLRVLMETFSDAVHLRNDLFSYQREVEDEGELSNGVLVLETFFGCTTQEAADLVNDVLTSRLHQFEHTAFTEVPAVALEKGLTPLEVAAVGAYTKGLQDWQSGGHEWHMRSSRYMNKGERPLAGWQALTGPGTSAADVGALLADAVAQRARSYT	0.000524
Gd11olS (germacradien-11-ol synthase; N-terminal domain of geosmin synthase) (Streptomyces coelicolor A3(2); H320F) (protein, N-terminal domain, residues 1-366 of geosmin synthase; codon-optimized synthetic gene in pET28a, expressed in E. coli, purified to homogeneity; tag details in supplement) MTQQPFQLPHFYLPHPARLNPHLDEARAHSTTWAREMGMLEGSGVWEQSDLEAHDYGLLCAYTHPDCDGPALSLITDWYVWVFFFDDHFLEKYKRSQDRLAGKAHLDRLPLFMPLDDAAGMPEPRNPVEAGLADLWTRTVPAMSADWRRRFAVATEHLLNESMWELSNINEGRVANPVEYIEMRRKVGGAPWSAGLVEYATAEVPAAVAGTRPLRVLMETFSDAVHLRNDLFSYQREVEDEGELSNGVLVLETFFGCTTQEAADLVNDVLTSRLHQFEHTAFTEVPAVALEKGLTPLEVAAVGAYTKGLQDWQSGGHEWFMRSSRYMNKGERPLAGWQALTGPGTSAADVGALLADAVAQRARSYT	2.3e-05
Gd11olS (germacradien-11-ol synthase; N-terminal domain of geosmin synthase) (Streptomyces coelicolor A3(2); H320A) (protein, N-terminal domain, residues 1-366 of geosmin synthase; codon-optimized synthetic gene in pET28a, expressed in E. coli, purified to homogeneity; tag details in supplement) MTQQPFQLPHFYLPHPARLNPHLDEARAHSTTWAREMGMLEGSGVWEQSDLEAHDYGLLCAYTHPDCDGPALSLITDWYVWVFFFDDHFLEKYKRSQDRLAGKAHLDRLPLFMPLDDAAGMPEPRNPVEAGLADLWTRTVPAMSADWRRRFAVATEHLLNESMWELSNINEGRVANPVEYIEMRRKVGGAPWSAGLVEYATAEVPAAVAGTRPLRVLMETFSDAVHLRNDLFSYQREVEDEGELSNGVLVLETFFGCTTQEAADLVNDVLTSRLHQFEHTAFTEVPAVALEKGLTPLEVAAVGAYTKGLQDWQSGGHEWAMRSSRYMNKGERPLAGWQALTGPGTSAADVGALLADAVAQRARSYT	3.8e-05

Now examine the next entry.
Exam item: Which kcat value belongs to Gd11olS (germacradien-11-ol synthase; N-terminal domain of geosmin synthase) (Streptomyces coelicolor A3(2); Q313A) (protein, N-terminal domain, residues 1-366 of geosmin synthase; codon-optimized synthetic gene in pET28a, expressed in E. coli, purified to homogeneity; tag details in supplement) MTQQPFQLPHFYLPHPARLNPHLDEARAHSTTWAREMGMLEGSGVWEQSDLEAHDYGLLCAYTHPDCDGPALSLITDWYVWVFFFDDHFLEKYKRSQDRLAGKAHLDRLPLFMPLDDAAGMPEPRNPVEAGLADLWTRTVPAMSADWRRRFAVATEHLLNESMWELSNINEGRVANPVEYIEMRRKVGGAPWSAGLVEYATAEVPAAVAGTRPLRVLMETFSDAVHLRNDLFSYQREVEDEGELSNGVLVLETFFGCTTQEAADLVNDVLTSRLHQFEHTAFTEVPAVALEKGLTPLEVAAVGAYTKGLQDWASGGHEWHMRSSRYMNKGERPLAGWQALTGPGTSAADVGALLADAVAQRARSYT ?
Marked response: 6.9e-05
